- STUDY TARGET: GST-Nv-NF-kB (Ser allele) (Nematostella vectensis, UniProt A7UNT2 2-411)
- Sequence: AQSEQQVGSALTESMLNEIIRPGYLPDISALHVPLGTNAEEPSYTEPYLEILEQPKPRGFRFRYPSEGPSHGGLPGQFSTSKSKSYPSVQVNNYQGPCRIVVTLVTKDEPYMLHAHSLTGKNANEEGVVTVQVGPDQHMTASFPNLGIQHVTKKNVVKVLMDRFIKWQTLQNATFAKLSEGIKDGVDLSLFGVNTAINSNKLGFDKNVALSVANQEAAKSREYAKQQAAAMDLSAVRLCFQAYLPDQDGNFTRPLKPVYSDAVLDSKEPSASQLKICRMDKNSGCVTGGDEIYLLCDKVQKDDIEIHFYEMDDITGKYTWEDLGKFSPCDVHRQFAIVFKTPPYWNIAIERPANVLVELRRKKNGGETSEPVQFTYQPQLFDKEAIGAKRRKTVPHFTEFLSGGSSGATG
- PROTOCOL NOTES: protein-binding microarray (PBM); PBM: ~300 nM protein, 6 mM HEPES pH 7.8, 80 mM KCl, 0.5 mM EDTA, 0.5 mM EGTA, 6% glycerol, 35 ng/ul poly-dIdC, 1% milk, 1 h, room temperature; high values mean tight binding
- CONDITION: dsDNA, one strand shown
So basically, if binding signal comes in under 7 z-score it's 1, and if it's 7 z-score or more it's -1.

1) CCGATTAACATCAGGCTTTCCCCTGATGTTAATCGGGTCTTGATTCGCTTGACGCTGCTG = -1
2) CCGATTAACATCAAAAAGTCCCTTGATGTTAATCGGGTCTTGATTCGCTTGACGCTGCTG = -1
3) CCGATTAACATCAGGGAATCACCTGATGTTAATCGGGTCTTGATTCGCTTGACGCTGCTG = 1
4) CCGATTAACATCAATATTCCCCCTGATGTTAATCGGGTCTTGATTCGCTTGACGCTGCTG = -1

----------
- STUDY TARGET: GST-Dm-Relish (Drosophila melanogaster, UniProt Q94527 99-473)
- Sequence: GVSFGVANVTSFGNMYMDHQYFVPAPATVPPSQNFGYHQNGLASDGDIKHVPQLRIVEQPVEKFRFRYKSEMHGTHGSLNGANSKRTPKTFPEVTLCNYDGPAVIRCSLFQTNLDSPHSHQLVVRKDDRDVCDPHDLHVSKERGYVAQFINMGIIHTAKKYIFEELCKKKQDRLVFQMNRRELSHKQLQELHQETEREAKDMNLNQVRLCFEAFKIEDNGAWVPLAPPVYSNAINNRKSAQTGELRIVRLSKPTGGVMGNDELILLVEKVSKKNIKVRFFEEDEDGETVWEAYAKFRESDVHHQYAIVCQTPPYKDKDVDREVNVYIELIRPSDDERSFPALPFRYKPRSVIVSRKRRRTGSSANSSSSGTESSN
- PROTOCOL NOTES: protein-binding microarray (PBM); PBM: ~300 nM protein, 6 mM HEPES pH 7.8, 80 mM KCl, 0.5 mM EDTA, 0.5 mM EGTA, 6% glycerol, 35 ng/ul poly-dIdC, 1% milk, 1 h, room temperature; Ap Aiptasia and Nv Nematostella (sea anemones) / Co Capsaspora / Aq Amphimedon (sponge) / Dm Drosophila / Hu human; RHD is the Rel homology domain; high values mean tight binding
- CONDITION: dsDNA, one strand shown
MEASURED PROPERTY: binding signal (z-score)

1) CCGATTAACATCAGGGGGGTGTATGATGTTAATCGGGTCTTGATTCGCTTGACGCTGCTG = 4.17
2) CCGATTAACATCAAACAGTCCCCTGATGTTAATCGGGTCTTGATTCGCTTGACGCTGCTG = 3.49
3) CCGATTAACATCAGGGACTTTAATGATGTTAATCGGGTCTTGATTCGCTTGACGCTGCTG = 5.04
4) CCGATTAACATCACGGGGCCCCCTGATGTTAATCGGGTCTTGATTCGCTTGACGCTGCTG = 3.89
5) CCGATTAACATCAGGAAATTCCCTGATGTTAATCGGGTCTTGATTCGCTTGACGCTGCTG = 6.79
6) CCGATTAACATCAGGGTTTCACCTGATGTTAATCGGGTCTTGATTCGCTTGACGCTGCTG = 5.71
7) CCGATTAACATCACGGATATCCCTGATGTTAATCGGGTCTTGATTCGCTTGACGCTGCTG = 2.04
8) CCGATTAACATCAGGAAAGCCCCTGATGTTAATCGGGTCTTGATTCGCTTGACGCTGCTG = 8.43
9) CCGATTAACATCAGGGGGGACCCTGATGTTAATCGGGTCTTGATTCGCTTGACGCTGCTG = 6.14

Every entry's value here was drawn from paper PMC5700166.
